B1: POLD4 (parent)
chain: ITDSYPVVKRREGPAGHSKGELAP

Variants of: B1
Assay: protein stability index of a GFP-peptide fusion (GPS, HEK-293T) (PSI 1-6); higher = more stable;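 note: lentivirally expressed fusions sorted by FACS into six bins by GFP to DsRed ratio, PSI derived from sequencing read proportions per bin multiplied by bin number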
Conditions: c terminus: a fixed tail appended
result.type: protein stability index
Lab note: record just the number, no unit beside it.

variant.label | protein stability index
S18G | 3.94
K9M | 4.06
K19M | 2.9
I1Y | 2.62
R11D | 4.79

# input variant: A23Q ; wanted: its protein stability index
3.31

// protein stability index lookup, key: P14K
2.97

Sample L22K — what was its protein stability index?
3.71

Give the measured protein stability index of V7A .
4.02

Value lookup for protein stability index; key = K9C
3.95

What does the record list as protein stability index for K9I ?
3.8

Fill blank: measured protein stability index of the variant P14M is ____.
3.06

Dear colleague, I am looking for the recorded protein stability index of the following variant: D3T
4.2

Give the measured protein stability index of E21I .
2.96

Look at this variant and give its reported protein stability index. V7W
4.17

Would you kindly share the measured protein stability index for P14F ?
3.28

# protein stability index lookup, item T2G
3.61

Using the record for K19D , report its protein stability index.
3.96

Report protein stability index for P6G please.
4.67

Which measured protein stability index value corresponds to S4T ?
2.56

# get_value(readout='protein stability index', item= E21F )
2.64
